Test: Solubility of compound 1 crystalline free base in different solvents, by HPLC
Type: physicochemical
Conditions: organic solvent or mixture, thermodynamic from solid; solvent Ethylene Glycol; crystalline free base slurry, room temperature, 4 day solution; read-out: Conc. FB (solubility)
property-label: solubility at 4 day (mg/mL)
Provide the reading as a plain figure in mg/mL.

Query: Give reported solubility at 4 day value for C[C@@H](c1ccc2ncccc2c1)c1nnc2sc(-c3cnn(C)c3)nn12
Result: 35.3

====

Assay: Solubility of compound 1 crystalline free base in different solvents, by HPLC
Assay type: physicochemical
Settings: organic solvent or mixture, thermodynamic from solid; solvent Nitromethane; crystalline free base slurry, room temperature, 4 day solution; read-out: Conc. FB (solubility)
property-label: solubility at 4 day (mg/mL)
Provide the reading as a plain figure in mg/mL.

Query: Give reported solubility at 4 day value for C[C@@H](c1ccc2ncccc2c1)c1nnc2sc(-c3cnn(C)c3)nn12 [Compound 1]
Result: 44.4
